Give measured hNK2R, IP3 Efficacy for each item. Keep answers brief.
Molecular target: hNK2R (Homo sapiens, UniProt P21452)
Construct: host or cells: COS-7
Sequence (P21452 whole entry): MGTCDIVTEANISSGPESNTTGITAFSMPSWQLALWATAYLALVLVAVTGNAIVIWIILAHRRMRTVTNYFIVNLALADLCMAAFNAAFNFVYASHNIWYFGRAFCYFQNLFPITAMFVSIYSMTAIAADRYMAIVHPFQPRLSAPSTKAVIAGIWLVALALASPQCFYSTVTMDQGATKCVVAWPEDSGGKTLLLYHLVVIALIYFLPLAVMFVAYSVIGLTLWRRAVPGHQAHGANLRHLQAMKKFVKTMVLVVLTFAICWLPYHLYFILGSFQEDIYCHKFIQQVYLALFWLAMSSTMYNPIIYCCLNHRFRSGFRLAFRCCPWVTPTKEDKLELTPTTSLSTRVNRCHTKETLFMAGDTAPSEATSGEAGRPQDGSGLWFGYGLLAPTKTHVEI
Assay: IP3 assay (inositol trisphosphate, 3H-myoinositol) in transiently transfected COS-7 cells
Format: cell-based
Conditions: COS-7 cells; figure legends: percent of 10^-6 M NKA
Numbered stars: 1 amine (or outer) side, 2 acyl side, 3 side chain; on linkers, the order of the positions; unused ones are H or OH. Square brackets hold non-standard residues; d marks the D form. Peptide text beside a SMILES is read from it. * marks the point of attachment. C18 diacid = O=C(O)CCCCCCCCCCCCCCCCC(=O)*; γGlu = O=C(O)[C@H](CCC(=O)[*:2])N[*:1]; NMeL = CN[C@@H](CC(C)C)C(=O)O; hSer = N[C@@H](CCO)C(=O)O; Nle = CCCC[C@H](N)C(=O)O; AEEA = NCCOCCOCC(=O)O; βAla = NCCC(=O)O
Numbers only, in %.

Consider the reported hNK2R, IP3 Efficacy for these compounds:
CCCC[C@H](NC(=O)[C@H](CC(C)C)N(C)C(=O)CNC(=O)[C@@H](NC(=O)[C@H](Cc1ccccc1)NC(=O)[C@H](CCCNC(=N)N)NC(=O)[C@H](CCC(=O)O)NC(=O)COCCOCCNC(=O)COCCOCCNC(=O)CC[C@H](NC(=O)CCCCCCCCCCCCCCCCC(=O)O)C(=O)O)C(C)C)C(N)=O [compound 337, *Glu;Arg;Phe;Val;Gly;NmLeu;Nle;NH2] ({C18 diacid-γGlu-AEEA-AEEA}-ERFVG[NMeL][Nle]-NH2): 80
COCC[C@H](NC(=O)[C@H](CC(C)C)N(C)C(=O)CNC(=O)[C@@H](NC(=O)[C@H](Cc1ccc(O)cc1)NC(=O)[C@H](CCCCN)NC(=O)[C@H](CC(=O)O)NC(=O)COCCOCCNC(=O)COCCOCCNC(=O)CC[C@H](NC(=O)CCCCCCCCCCCCCCCCC(=O)O)C(=O)O)[C@@H](C)O)C(N)=O [compound 366, *Asp;Lys;Tyr;Thr;Gly;NmLeu;Metox;NH2] ({C18 diacid-γGlu-AEEA-AEEA}-DKYTG[NMeL][hSer](Me)-NH2): 100
CCCC[C@H](NC(=O)[C@H](CC(C)C)N(C)C(=O)CNC(=O)[C@H](CCCNC(=N)N)NC(=O)[C@H](Cc1ccccc1)NC(=O)[C@H](CCCCN)NC(=O)[C@H](CCC(=O)O)NC(=O)COCCOCCNC(=O)COCCOCCNC(=O)CC[C@H](NC(=O)CCCCCCCCCCCCCCCCC(=O)O)C(=O)O)C(N)=O [compound 315, *Glu;Lys;Phe;Arg;Gly;NmLeu;Nle;NH2] ({C18 diacid-γGlu-AEEA-AEEA}-EKFRG[NMeL][Nle]-NH2): 60
CCCC[C@H](NC(=O)[C@H](CC(C)C)N(C)C(=O)CNC(=O)[C@H](CO)NC(=O)[C@H](Cc1ccc(O)cc1)NC(=O)[C@H](CCCCN)NC(=O)[C@H](CC(=O)O)NC(=O)COCCOCCNC(=O)COCCOCCNC(=O)CC[C@H](NC(=O)CCCCCCCCCCCCCCCCC(=O)O)C(=O)O)C(N)=O [compound 386, *Asp;Lys;Tyr;Ser;Gly;NmLeu;Nle;NH2] ({C18 diacid-γGlu-AEEA-AEEA}-DKYSG[NMeL][Nle]-NH2): 63

Let us move to another entry and its hNK2R, IP3 Efficacy.
Answer with the recorded hNK2R, IP3 Efficacy of CCCC[C@H](NC(=O)[C@H](CC(C)C)N(C)C(=O)CCNC(=O)[C@@H](NC(=O)[C@H](Cc1ccccc1)NC(=O)[C@H](CO)NC(=O)[C@H](CC(=O)O)NC(=O)[C@@H](NC(=O)[C@H](CCCCN)NC(=O)COCCOCCNC(=O)COCCOCCNC(=O)CC[C@H](NC(=O)CCCCCCCCCCCCCCCCC(=O)O)C(=O)O)[C@@H](C)O)C(C)C)C(N)=O [compound 310] ({C18 diacid-γGlu-AEEA-AEEA}-KTDSFV[βAla][NMeL][Nle]-NH2) only.
65
